- Read-out: glucuronosyltransferase (UGT1A1), UGT1A1 (gene 54658)
- assay summary: CLD_UGT1A1_24hr: CellzDirect (CLD) Gene Expression Assay for glucuronosyltransferase (UGT1A1) at 24 hours (AID 2283696)
Results filed as inconclusive are left out. Activity calls are given as the source filed them. Rule for the calls: active = hit-call score of the fitted dose curve at least 0.9, where 1 is the maximum; inconclusive = response in the unintended direction; inactive = score below 0.9.
Write down the outcome that applies. Available outcomes: active, inactive

The examples below pair each entry with its known result.
compound | category label
CCCCOC(=O)[C@@H](C)Oc1ccc(Oc2ccc(C#N)cc2F)cc1 | inactive
COP(=O)(NC(C)=O)SC (centres undefined) | inactive
CCOP(=S)(Oc1cnc(C(C)(C)C)nc1)OC(C)C (centres undefined) | active
CNC(=O)ON=C(SC)C(=O)N(C)C | inactive
CC(Oc1cccc(Cl)c1)C(=O)O (centres undefined) | inactive
CCOC(=O)CC(SP(=O)(OC)OC)C(=O)OCC (centres undefined) | inactive

Hi team, can someone confirm the assay call for `CCc1cccc(CC)c1N(COC)C(=O)CCl` ? inactive

Provenance of the data: PubChem BioAssay (EPA / NIEHS)
